All values here come from patent US8334308B2.

target: human recombinant renin (Homo sapiens, UniProt P00797); assay: Inhibition of human recombinant renin (enzymatic in vitro assay, Ang I EIA); format: biochemical; settings: human recombinant renin 40 pM, buffer, 37° C. 3 h
Label key: fulfilled means IC50 under 7 nM; not fulfilled means IC50 of 7 nM or more.

COMPOUND: COCCOc1ccccc1-c1ccc(C(CN)Cc2ccc(OCCOc3c(Cl)cc(C)cc3Cl)cc2)c(C)c1 (stereo not shown) [Example 4]
CLASS ASSIGNMENT: not fulfilled

COMPOUND: Cc1cc(Cl)c(OCCOc2ccc(CC(CN)c3ccc(-c4ccccc4Cl)cc3)cc2)c(Cl)c1 (stereo not shown) [Example 6]
CLASS ASSIGNMENT: not fulfilled

COMPOUND: COCCCc1c(-c2ccc(C(CN)Cc3ccc(OCCOc4c(Cl)cc(C)cc4Cl)cc3)c(C)c2)ccc[n+]1[O-] (stereo not shown) [Example 21]
CLASS ASSIGNMENT: fulfilled

COMPOUND: COCCCc1ncccc1-c1ccc(C(CN)Cc2ccc(OCCOc3c(Cl)cc(C)cc3Cl)cc2)c(C)c1 (stereo not shown) [Example 16]
CLASS ASSIGNMENT: fulfilled

COMPOUND: Cc1cc(Cl)c(OCCOc2ccc(CC(CN)c3ccc(-c4c(Cl)cccc4Cl)cc3C)cc2)c(Cl)c1 (stereo not shown) [Example 39]
CLASS ASSIGNMENT: not fulfilled

COMPOUND: COCCCc1ccccc1-c1ccc(C(CN)Cc2ccc(OCCOc3c(Cl)cc(C)cc3Cl)cc2)c(C)c1 (stereo not shown) [Example 3]
CLASS ASSIGNMENT: fulfilled

###

Target: renin in human plasma (Homo sapiens, UniProt P00797)
Construct: host or cells: recombinant renin of unstated origin added to human plasma from 10 normal donors
Sequence (P00797 67-406): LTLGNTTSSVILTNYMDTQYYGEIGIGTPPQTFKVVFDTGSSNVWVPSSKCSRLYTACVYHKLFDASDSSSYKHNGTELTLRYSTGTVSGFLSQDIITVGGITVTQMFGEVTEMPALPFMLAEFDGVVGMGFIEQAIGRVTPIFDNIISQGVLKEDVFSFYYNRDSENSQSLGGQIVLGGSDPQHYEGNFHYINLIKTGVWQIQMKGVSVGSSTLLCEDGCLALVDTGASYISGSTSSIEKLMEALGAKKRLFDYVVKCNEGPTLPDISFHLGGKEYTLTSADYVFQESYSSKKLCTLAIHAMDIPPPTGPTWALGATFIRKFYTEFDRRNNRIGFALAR
Assay: Inhibition of renin in human plasma (enzymatic in vitro assay, Ang I EIA)
Type: biochemical
Details: human plasma from 10 normal donors, 37° C. 2 h
MEASURED ATTRIBUTE: IC50 (nM)

MOLECULE: Cc1cc(Cl)c(OCCOc2ccc(CC(CN)c3ccc(-c4c(Cl)cccc4Cl)cc3C)cc2)c(Cl)c1 (stereo not drawn)
MEASURED ATTRIBUTE: IC50
QUANTITATIVE READOUT: 2320

MOLECULE: COCCCc1ccccc1-c1ccc(C(CN)Cc2ccc(OCCOc3c(Cl)cc(C)cc3Cl)cc2)c(C(F)(F)F)c1 (stereo not drawn)
MEASURED ATTRIBUTE: IC50
QUANTITATIVE READOUT: 156

MOLECULE: COCCCc1cccc(C)c1-c1ccc(C(CN)Cc2ccc(OCCOc3c(Cl)cc(C)cc3Cl)cc2)c(C)c1 (stereo not drawn)
MEASURED ATTRIBUTE: IC50
QUANTITATIVE READOUT: 643
